// reported IC50 for each item listed
Tested on: HT-29
Test: cells
Assay type: cell-based
Conditions: Homo sapiens, HT-29, read-out: Basal_Viability ATP HT-29

{"columns": ["compound", "censoring-qualifier", "IC50 (µM)"],
 "data": [
  ["O=c1c(-c2ccccc2)c1-c1ccccc1", ">", 20],
  ["COC(=O)Nc1nc2ccc([S+]([O-])c3ccccc3)cc2[nH]1 (centres unmarked)", ">", 20],
  ["O=c1[nH]c(=O)n([C@H]2C[C@H](O)[C@@H](CO)O2)cc1C(F)(F)F", ">", 20],
  ["COc1ccc(-c2ccc3cc(C(=O)O)ccc3c2)cc1C12CC3CC(CC(C3)C1)C2", "=", 1.12],
  ["O=C1c2c(O)ccc(O)c2C(=O)c2c(NCCNCCO)ccc(NCCNCCO)c21", "=", 7.59],
  ["O=C1C(I)=CC(=C(c2cc(I)c(O)c(I)c2)c2ccccc2C(=O)O)C=C1I", "=", 5.73],
  ["O=c1[nH]c(=O)n([C@H]2C[C@H](O)[C@@H](CO)O2)cc1F", ">", 20],
  ["Sc1ncnc2nc[nH]c12", "=", 0.635]
]}

====

System: endothelial tube formation in co-cultures of ECFCs and ADSCs treated with VEGF
Assay: cells
Assay type: cell-based, human
Conditions: Homo sapiens, IC50 / EC50; endothelial tube area, ADSC/ECFC co-culture; read-out: Anti-Angiogenesis
value-kind: IC50 (nM)

{"columns": ["molecule", "censoring-qualifier", "data-value"],
 "data": [
  ["COc1cccc2c1C(=O)c1c(O)c3c(c(O)c1C2=O)C[C@@](O)(C(C)=O)C[C@@H]3O[C@H]1C[C@H](N)[C@H](O)[C@H](C)O1", ">", 10000],
  ["Cc1ccc2nc(N)[nH]c(=O)c2c1Sc1ccncc1 [nolatrexed, reference compound]", "=", 7370],
  ["CC[C@@]1(O)C(=O)OCc2c1cc1n(c2=O)Cc2c-1nc1ccccc1c2/C=N/OC(C)(C)C", "=", 2],
  ["CCCCCCCCCCCCCCCC[N+](C)(C)Cc1ccccc1 [Cetalkonium chloride]", "=", 2530],
  ["CC(C)C[C@H](NC(=O)[C@H](CCc1ccccc1)NC(=O)CN1CCOCC1)C(=O)N[C@@H](Cc1ccccc1)C(=O)N[C@@H](CC(C)C)C(=O)[C@@]1(C)CO1 [carfilzomib, reference compound]", "=", 20.4],
  ["O=c1[nH]c(=O)n([C@H]2C[C@H](O)[C@@H](CO)O2)cc1Br", "=", 3850]
]}

====

Listing of entries alongside the reported pIC50.
Target: hp70S6K1 (RPS6KB1) (Homo sapiens, UniProt P23443)
Construct: purchased Cerep (LANCE kinase assay platform, contract assay)
Sequence (P23443 whole entry): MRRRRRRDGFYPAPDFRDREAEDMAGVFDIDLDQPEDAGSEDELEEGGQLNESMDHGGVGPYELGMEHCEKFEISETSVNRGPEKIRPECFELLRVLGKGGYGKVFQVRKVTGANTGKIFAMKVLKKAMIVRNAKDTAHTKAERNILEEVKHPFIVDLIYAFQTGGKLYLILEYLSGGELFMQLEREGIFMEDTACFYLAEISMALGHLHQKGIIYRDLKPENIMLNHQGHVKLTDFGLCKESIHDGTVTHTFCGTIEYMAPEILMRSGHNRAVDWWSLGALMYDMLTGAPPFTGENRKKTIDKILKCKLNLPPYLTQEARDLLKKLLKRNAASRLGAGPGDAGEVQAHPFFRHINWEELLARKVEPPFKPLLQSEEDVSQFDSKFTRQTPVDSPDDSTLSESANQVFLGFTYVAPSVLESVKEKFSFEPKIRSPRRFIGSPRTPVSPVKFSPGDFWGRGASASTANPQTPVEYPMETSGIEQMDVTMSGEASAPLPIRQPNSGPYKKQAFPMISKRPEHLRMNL
Assay: Cerep LANCE kinase assay hp70S6K1 (S1 assay 31)
Assay type: biochemical
Conditions: read-out: hp70S6K1 LANCE summarized IC50
pIC50: −log10 of the molar value.
value-kind: pIC50

{"columns": ["molecule", "assayed-target", "data-value"],
 "data": [
  ["O=C(Nc1ccc([N+](=O)[O-])cc1Cl)c1cc(Cl)ccc1O [NCGC00015735-11]", "hp70S6K1 (RPS6KB1) (Homo sapiens, UniProt P23443)", "< 4.70"],
  ["Nc1nc(=S)c2[nH]cnc2[nH]1 [NCGC00263442-01]", "hp70S6K1 (RPS6KB1) (Homo sapiens, UniProt P23443)", "< 4.70"]
]}

====

Tested on: NCI-H716 cells
Assay: cells
Assay type: cell-based, Human
Conditions: IC50 / EC50; NCI-H716; read-out: GLP 1 Secretion
pEC50: −log10 of the molar value.
Catalogue of compounds with associated pEC50
value-kind: pEC50

{"columns": ["compound", "value-kind", "data-value"],
 "data": [
  ["O=C(c1cc(O)c(O)c(O)c1)c1ccc(O)c(O)c1O [Hexahydro-2,3,4,3',4',5'-benzophenone]", "pEC50", "< 5.00"],
  ["Cc1cc(O)c2ccccc2c1O", "pEC50", "< 5.00"],
  ["O=[N+]([O-])c1ccc(Oc2ccc(N=C=S)cc2)cc1", "pEC50", "< 5.00"],
  ["O=C(O)c1ccccc1-c1c2cc(I)c(=O)c(I)c-2oc2c(I)c(O)c(I)cc12", "pEC50", 5.53]
]}

====

Molecular target: hGSK3b (Homo sapiens)
Construct: purchased Cerep (LANCE kinase assay platform, contract assay)
Sequence (P49841 whole entry): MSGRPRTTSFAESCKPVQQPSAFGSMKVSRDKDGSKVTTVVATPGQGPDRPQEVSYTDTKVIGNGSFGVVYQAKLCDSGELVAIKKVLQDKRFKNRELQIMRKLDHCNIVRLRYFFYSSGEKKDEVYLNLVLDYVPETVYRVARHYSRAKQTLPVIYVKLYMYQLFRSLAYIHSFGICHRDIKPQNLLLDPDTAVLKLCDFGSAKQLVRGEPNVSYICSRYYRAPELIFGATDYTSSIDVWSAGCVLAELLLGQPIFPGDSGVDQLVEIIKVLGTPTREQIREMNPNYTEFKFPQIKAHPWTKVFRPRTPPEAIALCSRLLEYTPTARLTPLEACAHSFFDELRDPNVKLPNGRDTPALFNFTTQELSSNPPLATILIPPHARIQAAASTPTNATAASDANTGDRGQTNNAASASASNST
Assay: Cerep LANCE kinase assay hGSK3b (S1 assay 34)
Assay type: biochemical
Settings: kinase assay; read-out: GSK3b
pIC50: −log10 of the molar value.

{"columns": ["compound", "assayed-target", "pIC50"],
 "data": [
  ["Cc1cc(O)c2c3c4c(cc(O)c13)C(C)(C)C(=O)c1c(O)cc(O)c(c1-4)C2=O", "hGSK3b (Homo sapiens)", 5.16],
  ["CC(=O)[C@]1(O)Cc2c(O)c3c(c(O)c2[C@@H](O[C@H]2C[C@H](N)[C@H](O)[C@H](C)O2)C1)C(=O)c1ccccc1C3=O", "hGSK3b (Homo sapiens)", "< 4.70"],
  ["CCc1nc(N)nc(N)c1-c1ccc(Cl)cc1 [pyrimethamine, reference compound]", "hGSK3b (Homo sapiens)", "< 4.70"],
  ["C[C@@]12C(=O)OC(=O)[C@]1(C)[C@H]1CC[C@@H]2O1", "hGSK3b (Homo sapiens)", "< 4.70"],
  ["O=c1[nH]c(=O)n([C@H]2C[C@H](O)[C@@H](CO)O2)cc1C(F)(F)F", "hGSK3b (Homo sapiens)", "< 4.70"],
  ["O=C1c2c(O)ccc(O)c2C(=O)c2c(NCCNCCO)ccc(NCCNCCO)c21", "hGSK3b (Homo sapiens)", "< 4.70"],
  ["O=C(CCCCCCC(=O)Nc1ccccc1)NO", "hGSK3b (Homo sapiens)", "< 4.70"],
  ["COC(=O)c1nc(Cl)c(Cl)nc1N", "hGSK3b (Homo sapiens)", "< 4.70"],
  ["O=c1[nH]c(=O)n([C@H]2C[C@H](O)[C@@H](CO)O2)cc1F", "hGSK3b (Homo sapiens)", "< 4.70"],
  ["Sc1ncnc2nc[nH]c12", "hGSK3b (Homo sapiens)", "< 4.70"],
  ["Oc1c(I)cc(I)c2cccnc12 [Diiodohydroxyquinoline]", "hGSK3b (Homo sapiens)", "< 4.70"],
  ["COC(=O)Nc1nc2ccc([S+]([O-])c3ccccc3)cc2[nH]1 (stereo not drawn)", "hGSK3b (Homo sapiens)", "< 4.70"],
  ["COC(=O)Nc1nc2ccc(Sc3ccccc3)cc2[nH]1", "hGSK3b (Homo sapiens)", "< 4.70"],
  ["COc1cc([C@@H]2c3cc4c(cc3[C@H](O)[C@H]3COC(=O)[C@H]23)OCO4)cc(OC)c1OC", "hGSK3b (Homo sapiens)", "< 4.70"],
  ["COC(=O)Nc1nc2ccc(C(=O)C3CC3)cc2[nH]1", "hGSK3b (Homo sapiens)", 4.83],
  ["Nc1nc2nc[nH]c2c(=S)[nH]1", "hGSK3b (Homo sapiens)", "< 4.70"],
  ["COc1ccc(-c2ccc3cc(C(=O)O)ccc3c2)cc1C12CC3CC(CC(C3)C1)C2", "hGSK3b (Homo sapiens)", 5.14],
  ["CCCOc1ccc2nc(NC(=O)OC)[nH]c2c1", "hGSK3b (Homo sapiens)", "< 4.70"]
]}

====

Measured pEC50, listed per entry for reference.
Tested on: HeLa cells
Test: cells
Type: cell-based
Conditions: Homo sapiens, HeLa, S2 Table; HeLa; 20 = no response at highest concentration; read-out: CellCycle G2/M
pEC50: −log10 of the molar value.
value-kind: pEC50

{"columns": ["compound", "data-value"],
 "data": [
  ["O=C1C2CC=CCC2C(=O)N1SC(Cl)(Cl)Cl (stereo not shown)", "< 5.00"],
  ["CCCCCCCCCCCCCCCC[N+](C)(C)CCN(Cc1ccc(OC)cc1)c1ncccn1 [Tonzonium bromide]", "< 5.00"],
  ["CCCOc1ccc2nc(NC(=O)OC)[nH]c2c1", 7.25],
  ["CC(C)n1c(/C=C/C(O)CC(O)CC(=O)O)c(-c2ccc(F)cc2)c2ccccc21 (stereo not shown) [fluvastatin, reference compound]", "< 5.00"],
  ["CCC(C)(C)C(=O)O[C@H]1C[C@@H](C)C=C2C=C[C@H](C)[C@H](CC[C@@H]3C[C@@H](O)CC(=O)O3)[C@H]21 [simvastatin, reference compound]", "< 5.00"],
  ["COC(=O)Nc1nc2ccc(C(=O)C3CC3)cc2[nH]1", 6.38],
  ["O=c1[nH]cc(F)c(=O)[nH]1", "< 5.00"]
]}
